meta.source: ChEMBL document CHEMBL1134472

System: MCF7
Assay: Cytotoxicity against MCF-7 cells with reference to taxol
Assay type: functional
Conditions: Homo sapiens
# maps each entry to its ED50/ED50(Taxol)
API: value field is a number in dimensionless ratio; no unit string.

Check out these entries, answers already filled in.
>>> reported_result("CC(=O)O[C@H]1C(=O)[C@@]2(C)[C@H]([C@H](OC(=O)c3ccccc3)[C@]3(O)C[C@H](OC(=O)[C@H](O)[C@@H](NC(=O)c4ccccc4)c4ccccc4)C(C)=C1C3(C)C)[C@]1(OC(C)=O)CO[C@@H]1C[C@@H]2O")
4
>>> reported_result("CC(=O)O[C@H]1C(=O)[C@@]2(C)[C@H]([C@H](OC(=O)c3ccccc3)[C@]3(O)CC(OC(=O)[C@@]4(O)Cc5ccccc5[C@@H]4NC(=O)c4ccccc4)C(C)=C1C3(C)C)[C@]1(OC(C)=O)CO[C@@H]1C[C@@H]2O (stereo not given in full)")
9
>>> reported_result("CC(=O)O[C@H]1C(=O)[C@@]2(C)[C@H]([C@H](OC(=O)c3ccccc3)[C@]3(O)CC(OC(=O)[C@@]4(O)CCc5ccccc5[C@@H]4NC(=O)c4ccccc4)C(C)=C1C3(C)C)[C@]1(OC(C)=O)CO[C@@H]1C[C@@H]2O (stereo not given in full)")
333
>>> reported_result("CC(=O)O[C@@]12CO[C@@H]1C[C@H](O)[C@@]1(C)C(=O)[C@H](O)C3=C(C)C(OC(=O)[C@@]4(O)CCc5ccccc5[C@@H]4NC(=O)OC(C)(C)C)C[C@@](O)([C@@H](OC(=O)c4ccccc4)[C@H]21)C3(C)C (stereo not given in full)")
239

Now for a further compound.
Task: What reported ED50/ED50(Taxol) corresponds to CC(=O)O[C@H]1C(=O)[C@@]2(C)[C@H]([C@H](OC(=O)c3ccccc3)[C@]3(O)CC(OC(=O)[C@]4(O)Cc5ccccc5[C@@H]4NC(=O)c4ccccc4)C(C)=C1C3(C)C)[C@]1(OC(C)=O)CO[C@@H]1C[C@@H]2O (stereo not given in full) on MCF7?
Output: 1600

----------
# maps each entry to its ED50/ED50(Taxol) (dimensionless ratio)
Target: Tubulin alpha chain (Sus scrofa)
Assay: Tubulin binding with reference to taxol was determined by tubulin assembly assay
Form: value (number only, do not type unit).

Check out these entries, answers already filled in.
>>> reported_result("CC(=O)O[C@H]1C(=O)[C@@]2(C)[C@H]([C@H](OC(=O)c3ccccc3)[C@]3(O)CC(OC(=O)[C@@]4(O)CCc5ccccc5[C@@H]4NC(=O)c4ccccc4)C(C)=C1C3(C)C)[C@]1(OC(C)=O)CO[C@@H]1C[C@@H]2O (some centres undefined)")
42
>>> reported_result("CC(=O)O[C@@]12CO[C@@H]1C[C@H](O)[C@@]1(C)C(=O)[C@H](O)C3=C(C)C(OC(=O)[C@@]4(O)Cc5ccccc5[C@@H]4NC(=O)OC(C)(C)C)C[C@@](O)([C@@H](OC(=O)c4ccccc4)[C@H]21)C3(C)C (some centres undefined)")
7
>>> reported_result("CC(=O)O[C@@]12CO[C@@H]1C[C@H](O)[C@@]1(C)C(=O)[C@H](O)C3=C(C)C(OC(=O)[C@@]4(O)CCc5ccccc5[C@@H]4NC(=O)OC(C)(C)C)C[C@@](O)([C@@H](OC(=O)c4ccccc4)[C@H]21)C3(C)C (some centres undefined)")
30

Task: What reported ED50/ED50(Taxol) (dimensionless ratio) corresponds to CC(=O)O[C@H]1C(=O)[C@@]2(C)[C@H]([C@H](OC(=O)c3ccccc3)[C@]3(O)CC(OC(=O)[C@@]4(O)Cc5ccccc5[C@@H]4NC(=O)c4ccccc4)C(C)=C1C3(C)C)[C@]1(OC(C)=O)CO[C@@H]1C[C@@H]2O (some centres undefined) on Tubulin alpha chain (Sus scrofa)?
Output: 4
